# System: MEXF 462NL
# ASSAY DETAILS: modified propidium iodide cytotoxicity assay
# Format: cell-based
# STATED CONDITIONS: Homo sapiens, Melanoma
Give pIC50 for every item shown.
Answers are plain numbers, as −log10 of the molar value.

COMPOUND: CCCCCCCCCCCC/C=C\N(NC(=O)COC)C(=O)CCCCCCCCC [Hydrazidomycin A, hydrazidomycin A]
pIC50: 6.12

Please examine the following record next.
Requested read-out: pIC50. Entry: CCCCCCC/C=C\CCCCC/C=C\N(NC(=O)COC)C(=O)CCCCCCCCC [Hydrazidomycin B, hydrazidomycin B] 4.69

====

# Tested on: HCT-116
# ASSAY DETAILS: modified propidium iodide cytotoxicity assay
# Format: cell-based
# STATED CONDITIONS: Homo sapiens, Colon
Give IC50 for every item shown.
One number for each entry, in µM.

COMPOUND: CCCCCCC/C=C\CCCCC/C=C\N(NC(=O)COC)C(=O)CCCCCCCCC [Hydrazidomycin B, hydrazidomycin B]
SCALE UNIT: µM
IC50: 19.4

Requested read-out: IC50. Entry: CCCCCCCCCCCC/C=C\N(NC(=O)COC)C(=O)CCCCCCCCC [Hydrazidomycin A, hydrazidomycin A] 0.758

====

# Test system: panel of 12 human tumor cell lines
# ASSAY DETAILS: modified propidium iodide cytotoxicity assay, panel of 12 human tumor cell lines
# Type: cell-based
# STATED CONDITIONS: geometric mean over panel of 12 human tumor cell lines; read-out: Cytotoxic potency (geometric mean IC50)
Give IC50 for every item shown.

Answered examples (2):
COMPOUND: CCCCCCCCCCCC/C=C\N(NC(=O)COC)C(=O)CCCCCCCCC [Hydrazidomycin A, hydrazidomycin A]
IC50: 0.37 µM
--
COMPOUND: CCCCC/C=C\C/C=C\CCCC/C=C\N(NC(=O)COC)C(=O)CCCCCCCCC [Hydrazidomycin C, hydrazidomycin C]
IC50: > 10 µM

Please examine the following record next.
Requested read-out: IC50. Entry: CCCCCCC/C=C\CCCCC/C=C\N(NC(=O)COC)C(=O)CCCCCCCCC [Hydrazidomycin B, hydrazidomycin B] 6.04 µM

====

# System: DU-145
# ASSAY DETAILS: modified propidium iodide cytotoxicity assay
# Assay type: cell-based
# STATED CONDITIONS: Homo sapiens, Prostate
ASSAY ENDPOINT: pIC50
Give bare numbers, as −log10 of the molar value.

MOLECULE: CCCCCCCCCCCC/C=C\N(NC(=O)COC)C(=O)CCCCCCCCC [Hydrazidomycin A, hydrazidomycin A]
ASSAY ENDPOINT: pIC50
DATA VALUE: 6.27

Requested read-out: pIC50. Entry: CCCCCCC/C=C\CCCCC/C=C\N(NC(=O)COC)C(=O)CCCCCCCCC [Hydrazidomycin B, hydrazidomycin B] 5.14
